Origin of measurements: patent US20240425478A1

Items are presented alongside their recorded pKi.
Target: Cyclin Dependent Kinase 4/Cyclin D3 (CDK4-cycD3) (Homo sapiens)
Construct: purchased Carna Biosciences 04-105
Sequence (P11802 whole entry): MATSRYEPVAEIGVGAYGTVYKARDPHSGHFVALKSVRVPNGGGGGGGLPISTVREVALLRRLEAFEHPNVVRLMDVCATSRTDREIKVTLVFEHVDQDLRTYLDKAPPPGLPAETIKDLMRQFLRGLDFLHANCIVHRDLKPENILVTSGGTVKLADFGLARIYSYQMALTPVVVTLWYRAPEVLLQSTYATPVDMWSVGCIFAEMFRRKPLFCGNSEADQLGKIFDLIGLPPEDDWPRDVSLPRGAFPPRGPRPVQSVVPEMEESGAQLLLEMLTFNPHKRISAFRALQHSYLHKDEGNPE
Sequence (P30281 whole entry partner): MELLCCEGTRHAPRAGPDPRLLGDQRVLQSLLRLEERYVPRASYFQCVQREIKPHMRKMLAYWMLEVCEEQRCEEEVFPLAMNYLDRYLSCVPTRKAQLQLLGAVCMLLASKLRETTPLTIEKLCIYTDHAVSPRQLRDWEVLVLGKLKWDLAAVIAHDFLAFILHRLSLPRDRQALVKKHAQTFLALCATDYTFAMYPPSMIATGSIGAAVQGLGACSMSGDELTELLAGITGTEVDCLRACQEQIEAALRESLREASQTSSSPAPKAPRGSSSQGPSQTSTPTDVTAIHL
Experiment: CDK4-cycD3 TR-FRET (LANCE) enzyme assay
Assay type: biochemical
Conditions: Table O, enzymatic assay
pKi: −log10 of the molar value.
Experimental Readout: pKi

1. Cc1ccc(Nc2cc([C@H]3CC[C@@H](OC(=O)NC(C)(C)C)C3)[nH]n2)cn1 ... 7.72
2. CC(C)NC(=O)O[C@@H]1CC[C@H](c2cc(Nc3cncc(N(C)C)n3)n[nH]2)C1 ... 6.74
3. Cc1nc(C(=O)N(C)C)ccc1Nc1cc([C@H]2CC[C@@H](OC(=O)NC3(C)CC3)C2)[nH]n1 ... 7.42
4. CC(C)(C)NC(=O)O[C@@H]1CC[C@H](c2cc(Nc3cccnn3)n[nH]2)C1 ... 7.48
5. Cc1cc(Nc2cc([C@H]3CC[C@@H](OC(=O)NC45CC(C4)C5)C3)[nH]n2)c(C)nn1 ... 5.22
6. Cc1cc(Nc2cc([C@H]3CC[C@@H](OC(=O)NC(C)(C)C)C3)[nH]n2)nn(C)c1=O ... 7.41
7. Cc1nc(S(C)(=O)=O)ccc1Nc1cc([C@H]2CC[C@@H](OC(=O)NC(C)(C)C)C2)[nH]n1 ... 6.33
8. CC[C@@H](C)NC(=O)O[C@@H]1CC[C@H](c2cc(Nc3cccnn3)n[nH]2)C1 (single isomer, unassigned) ... 6.37
9. Cc1cc(=O)n(C)cc1Nc1cc([C@H]2CC[C@@H](OC(=O)NC(C)C)C2)[nH]n1 ... 4.92
10. CC(C)NC(=O)O[C@@H]1CC[C@H](c2cc(Nc3ccc(-n4ccnc4)cn3)n[nH]2)C1 ... 6.72
11. Cc1ccncc1Nc1cc([C@H]2CC[C@@H](OC(=O)NC(C)(C)C)C2)[nH]n1 ... 6.39
12. CNC(=O)c1ncc(Nc2cc([C@H]3CC[C@@H](OC(=O)NC45CC(C4)C5)C3)[nH]n2)c(C)n1 ... 6.34
13. CC(C)(C)NC(=O)O[C@@H]1CC[C@H](c2cc(Nc3ccnc(CO)c3)n[nH]2)C1 [Example 10C] ... 7.29
14. Cc1cc(=O)n(C)nc1Nc1cc([C@H]2CC[C@@H](OC(=O)NC(C)(C)C)C2)[nH]n1 ... 6.24
15. CN1CCN(c2ccc(Nc3cc([C@H]4CC[C@@H](OC(=O)NC56CC(C5)C6)C4)[nH]n3)cn2)CC1 ... 8.02
